Recorded values, source PubChem BioAssay (NCI).

# Tested on: HCT-15 colon
# ASSAY: NCI tumour cell line growth inhibition, 48 h
REPORTED METRIC: log10 TGI (log10 of the value in µM)

COMPOUND	ASSAY TARGET	log10 TGI
O=C(COc1ccc(OCC(=O)NNC2=NC(c3cc(F)c(Cl)cc3Cl)CS2)c(Cl)c1)NNC1=NC(c2cc(F)c(Cl)cc2Cl)CS1 (stereo not given)	HCT-15 colon	1.56
O=C(N=Nc1c(O)[nH]c2ccccc12)c1oc2ccccc2c1CN1CCN(c2ccccc2)CC1	HCT-15 colon	1.01
CO[C@]12C=C/C(=C(/C(=O)OCc3cccnc3)C(=O)CCCCCCCC[C@@]3(OC)C=C/C(=C(/C(=O)OCc4cccnc4)C(=O)CCCCCCCC1)O3)O2	HCT-15 colon	0.45
Cn1cc(S(=O)(=O)NC(=O)Nc2ccc(Cl)cc2)c2ccccc21	HCT-15 colon	1.32
CCC/C(Cl)=N\OC(=O)Nc1cccc(C(F)(F)F)c1	HCT-15 colon	1.26

* * *

# Tested on: NCI-H460 lung
# ASSAY: NCI tumour cell line growth inhibition, 48 h
# TGI annotations
REPORTED METRIC: TGI (µM)

MOLECULE	READOUT RELATION	MEASUREMENT
N#CCCN(CCC#N)c1ccc(C(N=Nc2ccccc2)=Nc2ccc(Cl)cc2)cc1	>	100
O=C(CC(C(=O)c1cccs1)c1cccs1)c1ccccc1Cl (stereo not given)	>	100
CCC(C)[C@H](NC(=O)NC(=O)NC(=O)CI)C(=O)OC (stereo not given in full)	=	39.4
O=c1c(C2=NCCC2)c(-c2ccc[nH]2)[nH]n1-c1ccccc1	>	100
COc1cccc(-n2cc(-c3nc(Nc4cc(C)[nH]n4)c4ccccc4n3)nn2)c1	=	11.3

* * *

Quick reference: GI50 of the listed items.
# System: MCF7 breast
# ASSAY: NCI tumour cell line growth inhibition, 48 h
REPORTED METRIC: GI50

COMPOUND	ASSAY TARGET	MEASUREMENT
O=C(NNc1ccc(F)cc1)C1CCC(CNS(=O)(=O)c2ccc(Cl)c(Cl)c2)CC1 (centres undefined)	MCF7 breast	7.73 µM
C=C1CCC2C3(C)COC(c4c(OC)cccc4OC)OC3CCC2(C)C1C/C=C1/C(=O)OCC1O (centres undefined)	MCF7 breast	2.53 µM
Fc1ccc(-c2nn3c(-c4cc(C(F)(F)F)cc(C(F)(F)F)c4)nnc3s2)cc1	MCF7 breast	> 50 µM
CN(C)CCC=C1c2ccccc2C(C)(C)c2ccccc21	MCF7 breast	10.2 µM
C[N+](C)(CCCCCC[N+](C)(C)CCCN1C(=O)c2cc3ccccc3cc2C1=O)CCCN1C(=O)c2cc3ccccc3cc2C1=O	MCF7 breast	> 37.5 µM
CC1SC2(CCC(c3ccccc3)CC2)N(NC(=O)c2[nH]c3ccc(F)cc3c2-c2ccccc2)C1=O (centres undefined)	MCF7 breast	4.78 µM
O=C(O)C1C2C=CC(C2)C1C(=O)O (centres undefined)	MCF7 breast	> 100 µM
COc1ccc(-c2nn(-c3cccc(NC(=O)Nc4ccccc4)c3)cc2-c2ccncc2)cc1Cl	MCF7 breast	2.07 µM
CCCCCc1cc[n+](CC(=O)c2ccc([N+](=O)[O-])cc2)cc1	MCF7 breast	3.37 µM

* * *

# Tested on: NCI-H23 lung
# ASSAY: NCI tumour cell line growth inhibition, 48 h

COMPOUND	TGI
C=CCc1cc(C=C(C#N)C#N)cc(OC)c1O	> 100 µM
COc1cc2c(cc1OC)CN1CCCc3cc(OC)c(OC)cc3C1C2 (stereo not drawn)	> 100 µM
O=C(NNC(=S)Nc1ccc(Br)cc1)c1cc(-c2ccccc2)nc2ccccc12	55.8 µM

* * *

Overview of recorded TGI for various molecules
# System: MCF7 breast
# ASSAY: NCI tumour cell line growth inhibition, 48 h

MOLECULE	TGI
CCCCCCCCCCCCCCCC(=O)N[C@H](/C=C/[C@H](O)CCCCCCCCCCCCC)CO	> 100 µM
CCOC(=O)C(=[N+]=[N-])C(=O)CN1C(=O)C2CC(C)=C(C)CC2C1O (stereo not given)	> 100 µM
COc1cc2cc(C(=O)N3CC(CCl)c4c3cc(NCCN)c3ccccc43)[nH]c2c(OC)c1OC (stereo not given)	< 0.01 µM
CN(C)CCC=C1c2ccccc2C(C)(C)c2ccccc21	22.5 µM
Nn1c(CCCCCCCCc2nnc(COc3ccccc3)n2N)nnc1COc1ccccc1	> 100 µM

* * *

We begin with a simple list: items and their reported TGI.
# Test system: UACC-62 melanoma
# ASSAY: NCI tumour cell line growth inhibition, 48 h

COMPOUND	READOUT RELATION	TGI (µM)
O=c1c2ccccc2nc2n1C(c1ccc([N+](=O)[O-])cc1)C2(c1ccccc1)c1ccccc1 (configuration not stated)	>	100
CCC(C)[C@H](NC(=O)NC(=O)NC(=O)CI)C(=O)OC (some centres not stated)	=	24.7
O=C1CCCCC=C1C[N+](=O)[O-]	=	34.6
COc1ccc(-c2nn(-c3cccc(NC(=O)Nc4ccccc4)c3)cc2-c2ccncc2)cc1Cl	>	100
Cc1cc(Cl)ccc1NC(=O)CCCC(=O)C1CCC/C1=N\NC(=O)CC#N (configuration not stated)	>	100
c1ccc(N=c2nc(N3CCOCC3)ss2)cc1	=	27.5
CN1CC[C@]2(c3cccc(O)c3)CC(=O)/C(=C/c3ccccc3)[C@H]1C2	=	12.7
CCCCCCC/C=C/[C@H]1O[C@]2(O)C(=O)C=C3C[C@@H](O[C@@H]4O[C@H](CO)[C@@H](O)C(O)[C@@H]4O)C[C@@H]3[C@H]2C=C1C (some centres not stated)	=	6.96
O=c1cc(N2CCCC2)[nH]c(=O)n1-c1ccc(F)cc1	>	100
Cc1cc2c(C(C)C)c(O)c(O)c(C=NCCO)c2c(O)c1-c1c(C)cc2c(C(C)C)c(O)c(O)c(C=NCCO)c2c1O	=	6.15
CO/C(=C/C(=O)C(Cl)(Cl)Cl)CC/C(=C\C(=O)C(Cl)(Cl)Cl)OC	=	46.8
COc1cccc2c3ccccc3c3nc[nH]c3c12	>	100
CC1(C)CCCC(C)(C2CCC3(C)C2C(O)CC2C4(C)CCC(O)C(C)(C)C4C(O)CC23C)O1 (configuration not stated)	=	27.5
O=C1C=CC(=Nc2ccccc2)c2ccccc21	=	12.9
NC(=S)N/N=C/c1ccc(N)cn1	>	10
CC(Oc1ccc(OCC2CCCCC2)cc1)C(=O)NCCO (configuration not stated)	>	100
O=c1c(C2=NCCC2)c(-c2ccc[nH]2)[nH]n1-c1ccccc1	>	100
CC(=O)[CH-]C(=O)c1ccccc1.CC(=O)[CH-]C(=O)c1ccccc1.CC1(C)OCC(C2OC3OC(C)(C)OC3C2[O-])O1.CC1(C)OCC(C2OC3OC(C)(C)OC3C2[O-])O1.[Ti+4] (configuration not stated)	=	39.6
COc1ccc(CNC(C)C(=O)O)cc1 (configuration not stated)	>	100
CCOc1ccc2c(C)cc(=O)oc2c1	>	100
CN(C)CCC(CCN(C)C)=NOC(=O)c1ccccc1	>	100
O=c1c2cccc(F)c2sc2c(N3CCNCC3)nc3ccccc3c12	=	3.16

* * *

# System: SK-MEL-28 melanoma
# ASSAY: NCI tumour cell line growth inhibition, 48 h

COMPOUND	READOUT RELATION	TGI, µM
COC(=O)C1(C(=O)OC)N=C(C)OC1c1ccccn1 (stereo unspecified)	>	100
Cc1ccc(C2N=C(N)NC3=C2CCOc2c3ccc3ccccc23)cc1 (stereo unspecified)	>	100
Cc1nc2c(cc1C(=O)N/N=C/c1ccc([N+](=O)[O-])cc1)c(=O)n(C)c(=O)n2C	>	100
O=c1c2c(c3ccccc3n1-c1ccccc1)NC(=S)NC2c1ccc(Cl)cc1 (stereo unspecified)	=	32.5
COc1cc(/C=C2\Oc3cc(OCCCN4CCCC4)ccc3C2=O)cc(OC)c1	=	16
CCN(Cc1ccccc1Cl)c1ccc(CO)c(Cl)c1	=	24.7
Cc1cc(C)c2c(c1)C1=NCCN1C2(O)c1ccc(Cl)cc1 (stereo unspecified)	=	31
c1ccc(CN2CCC3(CC2)SSC2(CCN(Cc4ccccc4)CC2)SS3)cc1	>	100
Clc1cc2c(nn1)Nc1ccccc1S2	>	100
CN(C)c1ccc(-c2c(C#N)c(O)n(NS(=O)(=O)c3ccccc3)c(=O)c2C#N)cc1	>	100
CC(=O)OCC1=C(C(=O)O)C(c2ccc3c(c2)OCO3)c2cc3c(cc2O1)OCO3 (stereo unspecified)	>	100
c1ccc(-c2nnc(SCc3c[nH]c4ccccc34)n2-c2ccccc2)cc1	>	100
CC1=C(C(=O)Nc2ccc3[nH]ncc3c2)C(c2ccc(Cl)c(Cl)c2)CC(=O)N1 (stereo unspecified)	>	25
Cc1c(/C=N/NC(=S)Nc2ccccc2)c(=O)n(-c2ccccc2)n1C	>	100
O=c1c2ccccc2nc2n1C(c1ccc([N+](=O)[O-])cc1)C2(c1ccccc1)c1ccccc1 (stereo unspecified)	>	100
Cc1ccc(NC(=O)CC/C(CC(=O)C(C)(C)C)=N/NC(=O)C[N+](C)(C)C)cc1C	>	100
CCC/C(Cl)=N\OC(=O)Nc1cccc(C(F)(F)F)c1	=	37.6
CN1CC[C@]2(c3cccc(O)c3)CC(=O)/C(=C/c3ccccc3)[C@H]1C2	=	12.8
N#Cc1ccsc1NC(=O)COC(=O)c1cccc(S(=O)(=O)N2CCc3ccccc32)c1	>	100
COc1cc(OC)c2c(=O)c(OC)c(-c3ccc4c(c3)OCO4)oc2c1OC	>	100
Nc1nc2c(nnn2C2OC(CO)C(O)C2O)c(=O)[nH]1 (stereo unspecified)	>	100
CCOC(=O)NC(C(=O)OCC)(N1CCN(c2cc3c(cc2F)c(=O)c(C(=O)O)cn3CC)CC1)C(F)(F)F (stereo unspecified)	=	0.533
Cn1c2ccccc2c(=O)c2c(O)cc3c(c21)CC(C1(C)CO1)O3 (stereo unspecified)	=	7.59
Cc1cc(=O)n2c3c(c4c(cc13)c(CO)cc(=O)n4C)OC2	=	78.7
CCC(=O)NC(Nc1cccc(F)c1)(C(F)(F)F)C(F)(F)F	>	100
COC(=O)N/N=C(\C(=O)Nc1cccc([N+](=O)[O-])c1)c1nc2ccc([N+](=O)[O-])cc2[nH]c1=O	>	100
COc1ccc(-c2nnc3n(Cc4ccccc4)c4ccccc4n3c2=O)cc1	>	100
NCCCn1c2c(c3ccc([N+](=O)[O-])cc3c1=O)C(=O)c1cc(-c3ccccc3)ccc1-2	=	3.13
COC(=O)C1=CC2CC1C(S(=O)(=O)c1ccccc1)C2S(=O)(=O)c1ccccc1 (stereo unspecified)	=	30.4
COc1c2c(cc3c1OCO3)C13C=CC(OC)CC1N(CC3)C2 (stereo unspecified)	>	100
CCCCc1ccc(-n2sc3ncc([N+](=O)[O-])cc3c2=O)cc1	=	50.7
O=C(OC[C@H]1C[C@H]2C(=O)CCC[C@H]2O1)c1ccccc1	>	100
COc1ccc(-c2nn(-c3cccc(NC(=O)Nc4ccccc4)c3)cc2-c2ccncc2)cc1Cl	=	7.16
CO/C(=C/C(=O)C(Cl)(Cl)Cl)CC/C(=C\C(=O)C(Cl)(Cl)Cl)OC	=	80.5
CCCCCCCCCCC/C=C\C[C@H](O)C/C=C1/C(=O)C=C[C@@H]1C/C=C\CCCC(=O)OC	=	2.31
CCOP(=O)(Nc1ccccc1P(=O)(OCC)OCC)OCC	>	100
COC(=O)C(Cc1ccccc1)NP(=O)(O)OCC1OC(n2cc(I)c(=O)[nH]c2=O)CC1O (stereo unspecified)	>	100
Clc1nc(Cl)c2c3c(sc2n1)CCCC3	>	100
CC1SC2(CCC(c3ccccc3)CC2)N(NC(=O)c2[nH]c3ccc(F)cc3c2-c2ccccc2)C1=O (stereo unspecified)	=	18.1
O=C(CC1(O)C(=O)Nc2ccccc21)c1ccc(F)cc1 (stereo unspecified)	>	100
N=C(N)SCc1cc(Cl)cc(Cl)c1O	=	46.4
